Listed next: entries and their corresponding half-life.
Experiment: Lung-tissue pharmacokinetics of PG–OJ components in tumor-bearing mice (UPLC–MS/MS)
Format: in vivo, BALB/c nude male mice
Details: male, BALB/c nude, mouse, po; lung tissue, A549 tumor-bearing mice, intragastric PG–OJ extract 10.2 g/kg (6.8 g/kg elsewhere in the source), mean ± SD, n = 6; read-out: T1/2
Numbers only here, please. The scale is h.

Worked cases, half-life given:
CC(C)=CCC[C@](C)(O[C@@H]1O[C@H](CO)[C@@H](O)[C@H](O)[C@H]1O)[C@H]1CC[C@]2(C)[C@@H]1[C@H](O)C[C@@H]1[C@@]3(C)CC[C@H](O)C(C)(C)[C@@H]3[C@@H](O[C@@H]3O[C@H](CO)[C@@H](O)[C@H](O)[C@H]3O[C@@H]3O[C@@H](C)[C@H](O)[C@@H](O)[C@H]3O)C[C@]12C [Ginsenoside Re] | 1.76
CC(C)=CCC[C@](C)(O[C@@H]1O[C@H](CO[C@@H]2O[C@@H](CO)[C@H](O)[C@H]2O)[C@@H](O)[C@H](O)[C@H]1O)[C@H]1CC[C@]2(C)[C@@H]1[C@H](O)C[C@@H]1[C@@]3(C)CC[C@H](O[C@@H]4O[C@H](CO)[C@@H](O)[C@H](O)[C@H]4O[C@@H]4O[C@H](CO)[C@@H](O)[C@H](O)[C@H]4O)C(C)(C)[C@@H]3CC[C@]12C [Ginsenoside Rc] | 7.41
CC(C)=CCC[C@](C)(O[C@@H]1O[C@H](CO)[C@@H](O)[C@H](O)[C@H]1O)[C@H]1CC[C@]2(C)[C@@H]1[C@H](O)C[C@@H]1[C@@]3(C)CC[C@H](O[C@@H]4O[C@H](CO)[C@@H](O)[C@H](O)[C@H]4O[C@@H]4O[C@H](CO)[C@@H](O)[C@H](O)[C@H]4O)C(C)(C)[C@@H]3CC[C@]12C [Ginsenoside Rd] | 16.2
CC(C)=CCC[C@](C)(O[C@@H]1O[C@H](CO[C@@H]2OC[C@@H](O)[C@H](O)[C@H]2O)[C@@H](O)[C@H](O)[C@H]1O)[C@H]1CC[C@]2(C)[C@@H]1[C@H](O)C[C@@H]1[C@@]3(C)CC[C@H](O[C@@H]4O[C@H](CO)[C@@H](O)[C@H](O)[C@H]4O[C@@H]4O[C@H](CO)[C@@H](O)[C@H](O)[C@H]4O)C(C)(C)[C@@H]3CC[C@]12C [Ginsenoside Rb3] | 66.6

GET /values?readout=half-life&item= CC(C)=CCC[C@](C)(O[C@@H]1O[C@H](CO[C@@H]2O[C@H](CO)[C@@H](O)[C@H](O)[C@H]2O)[C@@H](O)[C@H](O)[C@H]1O)[C@H]1CC[C@]2(C)[C@@H]1[C@H](O)C[C@@H]1[C@@]3(C)CC[C@H](O[C@@H]4O[C@H](CO)[C@@H](O)[C@H](O)[C@H]4O[C@@H]4O[C@H](CO)[C@@H](O)[C@H](O)[C@H]4O)C(C)(C)[C@@H]3CC[C@]12C [Ginsenoside Rb1] 32.9

Data origin: paper PMC10819458
